Cited source: patent US7049321B2

Assay Method Text: Pharmacokinetic study in rats
Format: in vivo
Condition Info: rat, plasma, po; Rats, 10 mg/kg
Readout: AUC(0-inf) (ng·h/mL)
Output spec: scalar in ng·h/mL, unitless text.

Any idea what its AUC(0-inf) is? The molecule is CC[C@@H]1SC2(CCNCC2)NC1=O [AF292]
2150

###

Assay Method Text: Pharmacokinetic study in rats
Assay type: in vivo
Condition Info: rat, plasma, po; Rats, 10 mg/kg
Readout: MRT (h)
Output spec: scalar in h, unitless text.

Any idea what its MRT is? The molecule is `CC[C@@H]1SC2(CCNCC2)NC1=O`
1.5

###

Assay Method Text: Plasma levels of AF267B and AF292 in dogs after AF267B administration (toxicokinetic, LC-MS)
Assay type: in vivo, Beagle dogs
Condition Info: female, beagle, dog, plasma, po, 6 mg/kg, F (1x), AF267B 1.5, 3, 6 mg/kg p.o. single
Readout: AUC(0-inf)

Any idea what its AUC(0-inf) is? The compound is CC[C@@H]1SC2(CCNCC2)NC1=O [AF292]
3900 to 4840 ng·h/mL

Any idea what its AUC(0-inf) is? The compound is CC[C@@H]1SC2(CCN(C)CC2)NC1=O [AF267B]
985 to 3180 ng·h/mL

###

Assay Method Text: Plasma levels of AF267B and AF292 in dogs after AF267B administration (toxicokinetic, LC-MS)
Type: in vivo, Beagle dogs
Condition Info: female, beagle, dog, plasma, po; F (1x)
Readout: MRT

Any idea what its MRT is? The compound is `CC[C@@H]1SC2(CCNCC2)NC1=O`
8.7 to 18.7 h

Any idea what its MRT is? The compound is CC[C@@H]1SC2(CCN(C)CC2)NC1=O [AF267B]
4.7 to 5.3 h

###

Assay Method Text: Pharmacokinetic study in rats
Assay type: in vivo
Condition Info: rat, plasma, po; Rats, 10 mg/kg
Readout: Tmax (min)
Output spec: scalar in min, unitless text.

Any idea what its Tmax is? The compound is `CC[C@@H]1SC2(CCNCC2)NC1=O`
30

###

Assay Method Text: in vivo
Condition Info: female, rat, po, 2 mg/kg
Readout: Kp
Would you mind answering with just the numeric figure?

Any idea what its Kp is? The compound is CC[C@@H]1SC2(CCN(C)CC2)NC1=O [AF267B]
1.25

###

Assay Method Text: Pharmacokinetic study in rats
Format: in vivo
Condition Info: rat, plasma, po; Rats, 10 mg/kg
Readout: half-life (min)
Output spec: scalar in min, unitless text.

Any idea what its half-life is? The molecule is `CC[C@@H]1SC2(CCNCC2)NC1=O`
59.4

###

Hi there, I'd appreciate the recorded AUC(0-inf) for every entry that follows.
Assay Method Text: Plasma levels of AF267B and AF292 in dogs after AF267B administration (toxicokinetic, LC-MS)
Assay type: in vivo, Beagle dogs
Condition Info: male, beagle, dog, plasma, po, 6 mg/kg, M (1x), AF267B 1.5, 3, 6 mg/kg p.o. single

Any idea what its AUC(0-inf) is? The compound is CC[C@@H]1SC2(CCNCC2)NC1=O [AF292]
1140 to 10900 ng·h/mL

Any idea what its AUC(0-inf) is? The compound is CC[C@@H]1SC2(CCN(C)CC2)NC1=O [AF267B]
800 to 3690 ng·h/mL
